# target_of_assay: T1, recombinant protein containing hST2 extracellular domain with mouse antibody heavy chain Fc tag (hST2-ECD-mFc) (human)
# T1 construct: Used for SPR and for ELISA of chimeric and humanized antibodies; also called human ST2 antigen
# T1 chain: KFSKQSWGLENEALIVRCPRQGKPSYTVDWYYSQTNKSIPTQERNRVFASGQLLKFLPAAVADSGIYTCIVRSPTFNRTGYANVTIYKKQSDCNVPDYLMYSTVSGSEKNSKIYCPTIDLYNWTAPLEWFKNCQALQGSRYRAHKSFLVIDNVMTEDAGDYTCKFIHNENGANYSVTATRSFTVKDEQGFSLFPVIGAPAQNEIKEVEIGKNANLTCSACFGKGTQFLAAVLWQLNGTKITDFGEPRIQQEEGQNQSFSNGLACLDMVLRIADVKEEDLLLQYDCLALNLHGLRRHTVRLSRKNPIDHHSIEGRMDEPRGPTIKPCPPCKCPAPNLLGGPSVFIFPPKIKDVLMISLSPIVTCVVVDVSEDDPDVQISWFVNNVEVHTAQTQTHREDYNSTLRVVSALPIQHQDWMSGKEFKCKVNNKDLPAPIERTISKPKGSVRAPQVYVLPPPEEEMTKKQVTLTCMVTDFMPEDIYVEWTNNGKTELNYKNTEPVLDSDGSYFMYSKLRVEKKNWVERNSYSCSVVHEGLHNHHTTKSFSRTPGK
# test_method_notes: SPR (Biacore T200), hST2-ECD-mFc captured by anti-mouse IgG on CM5, antibody as analyte, 1:1 model
quantity_kind: Kd (nM)
The reply should contain only the number, in nM.

Chimeric 3C6 (antibody, human IgG2, kappa, V domains shown, also called xi3C6) VH: QVQLQQSGAEVVRPGASVTLSCKASDYTITDYEMHWVKQTPVHGLEWIGAIDPETGDTAYSQNFKGKATLTADESSSTAYMELSSLTSEDSAVYYCSRSATDYYFASWGQGTTLTVSS VL: DIVMTQAAISNPVTLGTSASMSCRSSKSLLHSNGITYLYWYLQKPGHSPQLLIYQMSNLASGVPDRFSSSGSGTDFTLKISRVEAEDVGVYYCAQNLELPFTFGSGTKLEIKR | 0.0872
Chimeric 7D1 (antibody, human IgG2, kappa, V domains shown, also called xi7D1) VH: QVQLQQSGAELVRPGASVTLSCKASGYTFTDYEMHWVKQTPVHGLDWIGTIDPETGDTAYNQKFKGRATLTADKSSSTAYMELSSLTSEDSAVYYCTRYSYTNSPYGMDYWGQGTSVTVSS VL: DVVMTQTPKFLLVSAGDRVTITCKASQSVSNDVAWYQQKPGQSPKLLIYYASNRYTGVPDRFTGSGYGTDFTFTINTVQAEDLAVYFCQQDYSSPYTFGGGTKLEIKR | 0.145

Now look at this entry.
*Q* Which measured Kd value corresponds to Chimeric 31C8 (antibody, human IgG2, kappa, V domains shown, also called xi31C8) VH: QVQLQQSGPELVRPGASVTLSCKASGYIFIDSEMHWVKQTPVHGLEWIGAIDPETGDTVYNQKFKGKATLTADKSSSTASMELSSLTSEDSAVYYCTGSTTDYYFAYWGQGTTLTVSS VL: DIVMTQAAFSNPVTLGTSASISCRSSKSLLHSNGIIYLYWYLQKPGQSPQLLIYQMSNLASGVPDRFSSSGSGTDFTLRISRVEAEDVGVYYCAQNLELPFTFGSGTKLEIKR ?
*A* 0.0177
